target desc: BCL6 BTB domain (Homo sapiens (Human), UniProt P41182)
property measured: Kd (µM)
Answer in µM, number only, no unit symbol.

Example cases with answers are listed next.
>  <smiles data>
Cn1cnc2c(c(-c3cc(Cl)c(O)c(C(N)=O)c3)cn2CC(=O)Nc2cc(N3CCOCC3)nc(F)c2Cl)c1=O

>  <value units>
µM

>  <measured>
0.0179

$$$$
>  <smiles data>
C[C@H]1CN(CCO)CCN1c1cc(NC(=O)Cn2cc(-c3cc(C(N)=O)c(O)c(F)c3F)c3c(=O)n(C)cnc32)c(Cl)cn1

>  <value units>
µM

>  <measured>
0.0136

$$$$

Kindly consider the entry below.
input: Requested field: Kd. Item: "C[C@H]1COCCN1c1cc(NC(=O)Cn2cc(-c3cc(C(N)=O)c(O)c(F)c3F)c3c(=O)n(C)cnc32)c(Cl)c(F)n1"
output: 0.0549
